Tested on: L1210 leukemia ip in BDF1 mice, survival T/C
Assay: NCI In Vivo Anticancer Drug Screen. Data for tumor model L1210 Leukemia (intraperitoneal) in B6D2F1 (BDF1) mice
Details: endpoint: mean survival time; dose: 200.0 mg/kg/injection; schedule: Q04DX003 (ip); vehicle: water; higher = longer survival
Inconclusive results and toxic doses are left out.
Hi there, I'd appreciate the recorded T/C for every entry that follows.

Ask: Provide L1210 leukemia ip in BDF1 mice, survival T/C T/C reading for CC(=O)Nc1cc(N)cc(NC(C)=O)c1 .
Reply: 98 % of control

Ask: GET T/C where system = L1210 leukemia ip in BDF1 mice, survival T/C and item = NC(=O)NNC1OCC(O)C(O)C1O (centres undefined)
Reply: 96 % of control

Ask: Enter T/C (test system L1210 leukemia ip in BDF1 mice, survival T/C) for Cc1cc2c(N)[nH]c(=O)nc2s1
Reply: 93 % of control

Ask: Give T/C only, for O=C1c2ccccc2C(=O)N1c1cc(O)cc(O)c1 , using L1210 leukemia ip in BDF1 mice, survival T/C data.
Reply: 94 % of control
